# system.name: VTCN1, Q7Z7D3
# Sequence (Q7Z7D3 whole entry): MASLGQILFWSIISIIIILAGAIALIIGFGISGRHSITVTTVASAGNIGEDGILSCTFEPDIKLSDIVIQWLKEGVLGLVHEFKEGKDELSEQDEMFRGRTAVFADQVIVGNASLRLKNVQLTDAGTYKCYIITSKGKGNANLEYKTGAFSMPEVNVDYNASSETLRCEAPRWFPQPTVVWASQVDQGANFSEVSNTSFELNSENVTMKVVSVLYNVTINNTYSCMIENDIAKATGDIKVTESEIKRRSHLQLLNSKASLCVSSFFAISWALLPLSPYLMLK
test.readout: binding in a display sort

INSERT INTO assay_data (binder, val) VALUES
  ('design_598_15ab41e9-cad4-4381-8935-81f74b313fe8_148_dldesign_0_cycle1_af2pred (protein) MAEEAKKTSDAIREMVKIAKEAGKEVAGSPEAQKKIAAARDKAMDAVAAGEDPEEQLKKAKEEIEAVVAEEKA', 'not found (inactive)'),
  ('design_600_24101276-ad9d-4944-b73e-53bb160363ad_1218_dldesign_0_cycle1_af2pred (protein) DEEKKKKAAEALDKAAELAKKAAEDEKYLPEALKALKETAKLAGEALGAEAAHAILEARAVVKAKGKEGAKEAAEVLEELRKKVR', 'not found (inactive)'),
  ('design_598_15ab41e9-cad4-4381-8935-81f74b313fe8_1784_dldesign_0_cycle1_af2pred (protein) ADEEGKKLVKEKLEEAKKALEKAKAGDKKEALDAASTATRNAHKIEAFAKAVPVSEEVVKLAKEAVKELEKYEEKAAKLLAK', 'not found (inactive)');

The measurements presented in this section are drawn from paper PMC13494018.
